# Test system: HL-60(TB) leukemia
# Protocol Details: NCI-60 one-dose screen, 48 h
# Measurement Conditions: 10 µM unless noted
About 83,000 compounds went through this panel and 20% of them were active in at least one assay; those are over-represented in the sample as a whole. Calls of active or inactive are those of the source. How the source made its calls: active means growth percent below 10; inactive means the rest.
In this exercise, the only acceptable responses are active, inactive

Example results:
| Compound | Label Value |
| --- | --- |
| COC(=O)[C@@H](C)C[C@H](Cc1ccccc1)NC(=O)c1nc([C@@H](C[C@H](C(C)C)N(C)C(=O)[C@@H](NC(=O)[C@H]2CCCCN2C)C(C)C)OC(C)=O)sc1C(C)C | active |
| Cn1cc(C2=C(c3cn(C4CCN(Cc5ccccn5)CC4)c4ccccc34)C(=O)NC2=O)c2ccccc21 | inactive |
| CNC(=O)Oc1cccc(C(F)(F)F)c1 | inactive |
| O=C(O)C(Cl)(Cl)C(F)(F)F | inactive |
| CC(C)[C@@H]1NC(=O)[C@]2(C)CSC(=N2)c2csc(n2)CNC(=O)C[C@@H](/C=C/CCS)OC1=O | active |

Ask | # lookup: test call for CC(C)(N)Cc1ccccc1
Reply | inactive

Ask | # lookup: test call for CC[C@H](NC(=O)[C@H]1CCCCN1C)C(=O)N(C)[C@H](C[C@@H](OC(C)=O)c1nc(C(=O)N[C@@H](Cc2ccccc2)C[C@H](C)C(=O)O)cs1)C(C)C
Reply | active

Ask | # lookup: test call for C#C[C@]1(OC(=O)CCCCCC)CC[C@H]2[C@@H]3CCC4=CC(=O)CC[C@@H]4[C@H]3CC[C@@]21C
Reply | active

Ask | # lookup: test call for CC1CCCC(C[N+](C)(C)C)C1=O (configuration not stated)
Reply | inactive

Ask | # lookup: test call for NC(=O)c1c(Br)n(C2OC(CO)C(O)C2O)c2ncnc(N)c12 (configuration not stated)
Reply | active

* * *

# Tested on: SN12C renal
# Protocol Details: NCI-60 one-dose screen, 48 h (100 = growth as untreated, 0 = no growth, -100 = all killed)
# Measurement Conditions: 10 µM unless noted
Compounds without any hit were thinned out: in the full panel of roughly 83,000, 20% have a hit.
Could you please report measured growth for the items listed next?
One number for each entry, in %.

Answered cases to consult:
| Compound | Readout Name | Experimental Value |
| --- | --- | --- |
| CCCCN1CCCC[C@@H]1C(=O)N[C@H](C(=O)N(C)[C@H](CCc1nc(C(=O)N[C@@H](Cc2ccccc2)C[C@H](C)C(=O)OC)cs1)C(C)C)[C@@H](C)CC | growth | 77.6 |
| O=C(O)C1C(C(=O)O)C2(Cl)C(Cl)=C(Cl)C1(Cl)C2(Cl)Cl.[Hg] (stereo not drawn) | growth | 87.4 |
| CCCCCSC1C2C(=O)C(Br)=CC13CCNc1c(O)c4c5c(c13)=[N+]2CCC=5C=N4 (stereo not drawn) | growth | -61.9 |

Give growth for all compounds that follow.
1. C[C@]12CC[C@H]3[C@@H](CC4SC(N)=NC45C/C(=N/NC(N)=O)CC[C@]35C)[C@@H]1CCC2=O (stereo partly drawn)
2. ClC1=C(Cl)C(Cl)(C2(Cl)C(Cl)=C(Cl)C(Cl)=C2Cl)C(Cl)=C1Cl
3. CCCCCCCC(=O)OCC(=O)[C@]1(O)Cc2c(O)c3c(c(O)c2[C@@H](OC2CC(N)C(O)C(C)O2)C1)C(=O)c1c(OC)cccc1C3=O (stereo partly drawn)
4. CCOc1ccccc1C(=O)OCC(Cl)(Cl)Cl
5. O=C(CCCCCNC1=CC(=O)c2ccccc2C1=O)NCCC[Te]c1ccccc1

Reply |
18.1
-25.2
-69.4
102
-8.47

Taken from PubChem BioAssay (NCI).
